target: Beta-3 Adrenergic Receptor (Homo sapiens (Human)); experiment: Homogeneous Time-Resolved Fluorescence (HTRF) cAMP antagonist assay, IC50 determination; conditions: CHO-K1 cells stably expressing recombinant receptor, isoproterenol at EC90
Sequence (P13945 whole entry, species assumed): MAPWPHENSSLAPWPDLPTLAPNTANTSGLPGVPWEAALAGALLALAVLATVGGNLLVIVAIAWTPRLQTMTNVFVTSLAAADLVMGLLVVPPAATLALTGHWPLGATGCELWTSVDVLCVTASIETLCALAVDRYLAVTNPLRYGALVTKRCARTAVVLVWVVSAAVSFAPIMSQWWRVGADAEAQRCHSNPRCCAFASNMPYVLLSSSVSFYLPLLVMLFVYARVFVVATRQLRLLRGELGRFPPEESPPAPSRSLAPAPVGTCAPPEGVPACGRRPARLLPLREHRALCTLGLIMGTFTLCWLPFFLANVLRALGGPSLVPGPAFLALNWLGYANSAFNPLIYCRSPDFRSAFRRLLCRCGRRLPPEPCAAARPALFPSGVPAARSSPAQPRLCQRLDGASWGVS
pIC50: −log10 of the molar value.
The entries below come with measured pIC50 values attached.
Quantity Kind: pIC50

INSERT INTO assay_data (compound, quantity_kind, val) VALUES
  ('CNS(=O)(=O)c1cccc(OC[C@@H](O)CNC2COC3(CCN(S(=O)(=O)c4ccc(F)cc4Cl)CC3)C2)c1 (stereo partly shown) [Compound 200]', 'pIC50', 7.65),
  ('CCN1CCOc2ccc(S(=O)(=O)N3CCC4(CC3)C[C@H](NC[C@H](O)COc3cccc(S(=O)(=O)NC)c3)CO4)cc21 [Compound 350]', 'pIC50', 7.66),
  ('CN1CCOc2ncc(S(=O)(=O)N3CCC4(CC3)C[C@@H](NC[C@H](O)COc3cccc(S(=O)(=O)NCC(F)F)c3)CO4)cc21 [Compound 461]', 'pIC50', 7.50),
  ('CNS(=O)(=O)c1cccc(OC[C@@H](O)CNC2COC3(CCN(S(=O)(=O)c4cccc(F)c4Cl)CC3)C2)c1 (stereo partly shown) [Compound 199]', 'pIC50', 7.82),
  ('CNS(=O)(=O)c1cccc(OC[C@@H](O)CN[C@@H]2COC3(CCN(S(=O)(=O)c4cccc(-c5cc[nH]n5)c4)CC3)C2)c1 [Compound 295]', 'pIC50', 8.14),
  ('O=S(=O)(NCCF)c1cccc(OC[C@@H](O)CN[C@H]2COC3(CCN(S(=O)(=O)c4ccc5ncccc5c4)CC3)C2)c1 [Compound 393]', 'pIC50', 6.85),
  ('CNS(=O)(=O)c1cccc(OC[C@@H](O)CN[C@H]2COC3(CCN(S(=O)(=O)c4cnc5c(c4)CCCO5)CC3)C2)c1 [Compound 483]', 'pIC50', 7.38),
  ('CNS(=O)(=O)c1cccc(OC[C@@H](O)CNC2COC3(CCN(S(=O)(=O)c4ccc5c(Cl)cccc5c4)CC3)C2)c1 (stereo partly shown) [Compound 223]', 'pIC50', 7.87),
  ('CNS(=O)(=O)c1cccc(OC[C@@H](O)CN[C@H]2COC3(CCN(c4nccc(-c5ccccc5)n4)CC3)C2)c1 [Compound 572]', 'pIC50', 7.18),
  ('CNS(=O)(=O)c1cccc(OC[C@@H](O)CNC2COC3(CCN(S(=O)(=O)c4cccc(-c5cnn(Cc6ccccc6)c5)c4)CC3)C2)c1 (stereo partly shown) [Compound 77]', 'pIC50', 7.76),
  ('CNS(=O)(=O)c1cccc(OC[C@@H](O)CNC2COC3(CCN(S(=O)(=O)c4ccc(-c5nn[nH]n5)cc4)CC3)C2)c1 (stereo partly shown) [Compound 410]', 'pIC50', 6.41),
  ('CCN1CCOc2ccc(S(=O)(=O)N3CCC4(CC3)CC(NC[C@H](O)COc3cccc(S(=O)(=O)NC)c3)CO4)cc21 (stereo partly shown) [Compound 333]', 'pIC50', 8.04),
  ('CNS(=O)(=O)c1cccc(OC[C@@H](O)CNC2COC3(CCN(S(=O)(=O)c4cccnc4N4CCOCC4)CC3)C2)c1 (stereo partly shown) [Compound 442]', 'pIC50', 6.44);

These measurements were taken from patent US11987588B2.
